protocol: Bidirectional transport experiments on Caco-2 cell monolayer model
Format: in vitro ADME, human
condition: human, Caco-2, Papp(BL-AP), BL to AP; donor 10 μM; 3 h, 37 °C; single time point; mean ± S.D. (n=3)
valueType: Papp B→A at 3 h, 10 μM (×10⁻⁶ cm/s)
Provide only the numeric value, understood in ×10⁻⁶ cm/s.

Could you share which Papp B→A at 3 h, 10 μM value was measured for `C[C@H]1O[C@@H](O[C@H]2CC[C@@]3(C)[C@@H](CC[C@]4(C)[C@@H]3C=C[C@]35OC[C@@]6(CCC(C)(C)C[C@H]63)[C@@H](O)C[C@]54C)[C@]2(C)CO)[C@H](O)[C@@H](O[C@@H]2O[C@H](CO)[C@@H](O)[C@H](O)[C@H]2O)[C@H]1O` ?
0.102
